- Test system: K98450-129-R-PDC multicell spheroids, viability;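 note: spheroids exposed to agents for seven days before read-out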
- Experimental details: Anticancer human tumor K98450-129-R-PDC patient-derived colon adenocarcinoma cell line growth inhibition [PI3K]
- Study conditions: second compound 0.0316 µM; first compound 0.316 µM; stronger effect = lower value
- From the text: Combinatorial screen of targeted agents with the PI3K inhibitors inavolisib, alpelisib, duvelisib, and copanlisib in multi-cell type tumor spheroids A high-throughput screen of multi-cell type tumor spheroids was designed to identify active combinations of targeted small molecules and PI3K pathway inhibitors. […] Compounds. […] If the clinical Cmax for an agent had not been determined, the highest concentration tested was 10 microM. […]
Give measured viability, T/C for each item. Keep answers brief.
Give the value in % but do not write % after it.

Q. Request the reported viability, T/C associated with C#Cc1c(F)ccc2cc(O)cc(-c3ncc4c(N5CC6CCC(C5)N6)nc(OCC56CCCN5CC(F)C6)nc4c3F)c12 (stereo not given) + COc1c(OCCCN2CCOCC2)ccc2c3n(c(=NC(=O)c4cnc(N)nc4)nc12)CCN3
A. 76

Q. Could you do the same for CCCS(=O)(=O)Nc1ccc(F)c(C(=O)c2c[nH]c3ncc(-c4ccc(Cl)cc4)cc23)c1F + COc1c(OCCCN2CCOCC2)ccc2c3n(c(=NC(=O)c4cnc(N)nc4)nc12)CCN3 , please?
A. 82.3

Q. // same read-out, input: C[C@@H](NC(=O)c1ncnc(N)c1Cl)c1ncc(C(=O)Nc2cc(C(F)(F)F)c(Cl)cn2)s1 + Cc1nc(NC(=O)N2CCCC2C(N)=O)sc1-c1ccnc(C(C)(C)C(F)(F)F)c1
A. 119

Q. Consider next the compound CNC(=O)c1ccc(N2C(=S)N(c3ccc(C#N)c(C(F)(F)F)c3)C(=O)C2(C)C)cc1F + CC(Nc1ccc2c(c1)OCCn1cc(N3C(=O)OCC3C(F)F)nc1-2)C(N)=O in the same way.
A. 94.5

Q. // query: CC1(C)CCC(Nc2ncc(C(F)(F)F)c(-c3c[nH]c4c(P(C)(C)=O)c(C#N)ccc34)n2)CN1 (stereo not given) + Cc1nc(NC(=O)N2CCCC2C(N)=O)sc1-c1ccnc(C(C)(C)C(F)(F)F)c1
A. 94.7

src = PubChem BioAssay AID1963961
